- Tested on: Huh7 cells
- particulars: human
Counter-ions that a name gives are not always drawn.
parameter_measured: TC50 DENV-2 (7 + 17 h)

compound: CNc1ccc2oc(C[C@H]3O[C@@]4(CC[C@H]3C)O[C@H]([C@H](C)C(=O)c3ccc[nH]3)[C@H](C)C[C@H]4C)nc2c1C(=O)O [Calcimycin]
parameter_measured: TC50 DENV-2 (7 + 17 h)
recorded_value: >50 µM

compound: C=C1C(=O)O[C@H]2[C@H]1CC/C(C)=C/CC[C@@]1(C)O[C@@H]21 [Parthenolide]
parameter_measured: TC50 DENV-2 (7 + 17 h)
recorded_value: 35.8 µM

compound: CC(C)(C)c1cc(C=C(C#N)C#N)cc(C(C)(C)C)c1O [Tyrphostin A9]
parameter_measured: TC50 DENV-2 (7 + 17 h)
recorded_value: >50 µM

compound: CC[C@@]1([C@@H]2O[C@@H]([C@H]3O[C@@](O)(CO)[C@H](C)C[C@@H]3C)C[C@@H]2C)CC[C@H]([C@]2(C)CC[C@]3(C[C@H](O)[C@@H](C)[C@@H]([C@@H](C)[C@@H](OC)[C@H](C)C(=O)O)O3)O2)O1 [Monensin, Monensin sodium salt]
parameter_measured: TC50 DENV-2 (7 + 17 h)
recorded_value: >50 µM
